- test.target: human α7 nAChR (Homo sapiens)
- Construct: expressed in transfected cells; host or cells: GH4C1 cells derived from rat pituitary (ATCC CCL-82.2)
- procedure.details: Evaluation of PAM activity with human α7 nACh receptor stably expressing cells (aequorin luminescence, FDSS7000)
- Assay type: cell-based
- study.conditions: test compound 10 μmol/L; ACh added at EC20; ratio of RLU (Max-Min) of test wells to control wells
quantity: α7PAM (%) @ 10 μmol/L

Worked examples follow.
# compound, observed.measurement
records = [
    ("COc1c(Br)ccc2c1cnn2C1CCN(C(=O)N[C@H]2CC[C@H](OC)CC2)CC1", 293),
    ("COCc1nn(C2CCN(C(=O)NC3CCC(OC)CC3)CC2)c2ccc(C)cc12 (centres unmarked)", 242),
    ("CCc1ccc2c(cnn2[C@H]2CC[C@@H](C(=O)NC3CCOCC3)CC2)c1", 325),
    ("COCC(C)c1ccc2c(cnn2C2CCN(C(=O)NC3CCC(F)(F)CC3)CC2)c1 (centres unmarked)", 364),
    ("Cc1ccc2c(cnn2C2CCN(C(=O)NC3CCCC(F)(F)C3)CC2)c1 (centres unmarked)", 888),
    ("[2H]C([2H])([2H])O[C@H]1CC[C@H](NC(=O)N2CCC(n3ncc4cc(C5CC5)ccc43)CC2)CC1", 1268),
]

a = CCOc1ccc2c(cnn2C2CCN(C(=O)C3CCCCC3)CC2)c1
b = CCOc1nn(C2CCN(C(=O)NC3CCOCC3)CC2)c2ccc(OC(F)(F)F)cc12
Req: Looking only at measured α7PAM (%) @ 10 μmol/L, which entry is lower, a or b ? Could you answer with the label of the item you picked?
Resp: b
(b: 181%, a: 267%)

###

- test.target: human α7 nAChR (Homo sapiens)
- Construct: expressed in transfected cells; host or cells: GH4C1 cells derived from rat pituitary (ATCC CCL-82.2)
- procedure.details: Evaluation of PAM activity with human α7 nACh receptor stably expressing cells (aequorin luminescence, FDSS7000)
- Type: cell-based
- study.conditions: test compound 10 μmol/L; ACh added at EC20; ratio of RLU (Max-Min) of test wells to control wells; read-out: α7PAM (%) @ 10 μmol/L
quantity: activity at 10 µM (%)

Example cases with answers are listed next.
# compound, activity at 10 µM / %
records = [
    ("CO[C@H]1CC[C@H](NC(=O)N2CCC(n3ncc4cc(OC5CC5)ccc43)CC2)CC1", 621),
    ("O=C(NC1CCC1)N1CCC(n2ncc3cc(C(F)(F)F)ccc32)CC1", 315),
    ("O=C(NC1CCC(F)(F)CC1)N1CCC(n2ncc3cc(F)ccc32)CC1", 340),
    ("CC(C)Oc1ccc2c(cnn2C2CCN(C(=O)NC3CCC(F)(F)CC3)CC2)c1", 544),
    ("CO[C@H]1CC[C@H](NC(=O)N2CCC(n3ncc4cc(OC(F)(F)F)ccc43)CC2)CC1", 238),
]

1 = CCc1ccc2c(c1)c(OC(C)C)nn2C1CCN(C(=O)NC2CCOCC2)CC1
2 = CO[C@H]1CC[C@H](NC(=O)N2CCC(n3ncc4c(C)c(C5CC5)ccc43)CC2)CC1
Req: # compare activity at 10 µM for 1 vs 2 ; return the one with the smaller value API: response body contains the label of the selected item.
Resp: 1

A = Cc1ccc2c(cnn2C2CCN(C(=O)N[C@@H]3CCCCC3(F)F)CC2)c1
B = [2H]C([2H])([2H])c1ccc2c(cnn2C2CCN(C(=O)N[C@H]3CC[C@H](OC)CC3)CC2)c1
Req: Form field 'greater activity at 10 µM' accepts A or B ; which applies? In your reply, give the label of the chosen option.
Resp: A

###

- test.target: human α7 nAChR (Homo sapiens)
- Construct: expressed in transfected cells; host or cells: GH4C1 cells derived from rat pituitary (ATCC CCL-82.2)
- procedure.details: Evaluation of PAM activity with human α7 nACh receptor stably expressing cells (aequorin luminescence, FDSS7000)
- Type: cell-based
- study.conditions: test compound 10 μmol/L; ACh added at EC20; ratio of RLU (Max-Min) of test wells to control wells
quantity: α7PAM (%) @ 10 μmol/L

The cases that follow already have their α7PAM (%) @ 10 μmol/L on record.
# molecule, observed.measurement
rows = [
    ("O=C(C1CCOCC1)N1CCC(n2ncc3cc(Br)ccc32)CC1 [Example 102]", 228),
    ("CCc1cnc2c(cnn2C2CCN(C(=O)NC3CCC(OC)CC3)CC2)c1 (stereo not shown) [Example 100]", 198),
    ("O=C(NC1CCC(OC(F)F)CC1)N1CCC(n2ncc3cc(C4CC4)ccc32)CC1 (stereo not shown) [Example 205]", 1187),
    ("CCc1ccc2c(cnn2[C@H]2CC[C@@H](C(=O)NC3CCC(OC)CC3)CC2)c1 (stereo partly shown) [Example 130]", 252),
    ("Cc1ccc2c(cnn2C2CCN(C(=O)C3CCC(F)(F)CC3)CC2)c1 [Example 133]", 568),
]

1 = CCOc1ccc2c(cnn2C2CCN(C(=O)c3ccc(F)cc3)CC2)c1 [Example 112]
2 = CCc1nn(C2CCN(C(=O)N[C@H]3CC[C@H](OC)CC3)CC2)c2ccc(OC)cc12 [Example 240]
3 = COCCCc1ccc2c(cnn2C2CCN(C(=O)NC3CCCC3)CC2)c1 [Example 31]
4 = CO[C@H]1CC[C@H](NC(=O)N2CCC(n3ncc4c(C)c(OC(F)F)ccc43)CC2)CC1 [Example 293]
Req: Order the entries by their reported α7PAM (%) @ 10 μmol/L, beginning at the minimum. Could you list the labels in the order requested?
Resp: 1, 4, 2, 3
(1: 265%, 4: 525%, 2: 833%, 3: 1191%)

###

- test.target: human α7 nAChR (Homo sapiens)
- Construct: expressed in transfected cells; host or cells: GH4C1 cells derived from rat pituitary (ATCC CCL-82.2)
- procedure.details: Evaluation of PAM activity with human α7 nACh receptor stably expressing cells (aequorin luminescence, FDSS7000)
- Type: cell-based
- study.conditions: test compound 10 μmol/L; ACh added at EC20; ratio of RLU (Max-Min) of test wells to control wells
quantity: α7PAM (%) @ 10 μmol/L

# compound, quantity, reading.unit, observed.measurement
rows = [
    ("COc1ccc2c(c1)c(C1CCOCC1)nn2C1CCN(C(=O)N[C@H]2CC[C@H](OC)CC2)CC1", "α7PAM (%) @ 10 μmol/L", "%", 348),
    ("COCCCc1ccc2c(cnn2C2CCN(C(=O)N[C@H]3CC[C@H](OC)CC3)CC2)c1", "α7PAM (%) @ 10 μmol/L", "%", 430),
]

I = O=C(NC1CCC1)N1CCC(n2ncc3cc(OC(F)(F)F)ccc32)CC1
II = COC1CCC(C(=O)N2CCC(n3ncc4cc(C5CC5)ccc43)CC2)CC1 (stereo not shown)
Req: // compare: I vs II , metric α7PAM (%) @ 10 μmol/L, want the smaller Bench note: the answer is the label of the chosen record.
Resp: I
(I: 302%, II: 448%)

###

- test.target: human α7 nAChR (Homo sapiens, UniProt P36544)
- Construct: expressed in transfected cells; host or cells: GH4C1 cells derived from rat pituitary (ATCC CCL-82.2)
- Sequence (P36544 23-502): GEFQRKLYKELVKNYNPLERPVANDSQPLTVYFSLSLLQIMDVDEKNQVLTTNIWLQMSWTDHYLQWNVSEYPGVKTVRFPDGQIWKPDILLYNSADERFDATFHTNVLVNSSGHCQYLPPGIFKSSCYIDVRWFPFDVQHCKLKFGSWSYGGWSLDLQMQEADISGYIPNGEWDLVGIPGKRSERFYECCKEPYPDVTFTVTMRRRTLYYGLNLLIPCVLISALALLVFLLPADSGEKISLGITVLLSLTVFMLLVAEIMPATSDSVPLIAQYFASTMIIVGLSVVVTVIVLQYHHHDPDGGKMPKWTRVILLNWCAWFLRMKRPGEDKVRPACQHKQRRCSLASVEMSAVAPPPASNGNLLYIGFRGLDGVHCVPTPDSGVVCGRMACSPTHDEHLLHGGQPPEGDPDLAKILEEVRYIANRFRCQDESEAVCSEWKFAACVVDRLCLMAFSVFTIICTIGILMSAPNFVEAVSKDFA
- procedure.details: Evaluation of PAM activity with human α7 nACh receptor stably expressing cells (aequorin luminescence, FDSS7000)
- Type: cell-based
- study.conditions: test compound 10 μmol/L; ACh added at EC20; ratio of RLU (Max-Min) of test wells to control wells
quantity: α7PAM (%) @ 10 μmol/L

Example entries and their recorded answers appear below.
# molecule, observed.measurement
data = [
    ("COc1ccc2c(c1)c(C1CC1)nn2C1CCN(C(=O)N[C@H]2CC[C@H](OC)CC2)CC1 [Example 257]", 801),
    ("CCOc1cccc2c1cnn2C1CCN(C(=O)NC2CCCCC2)CC1 [Example 191]", 493),
    ("CC(C)(C)NC(=O)N1CCC(n2ncc3cc(C4CC4)ccc32)CC1 [Example 172]", 541),
    ("COC1CCC(NC(=O)N2CCC(n3ncc4cc(OC(C)C)ccc43)CC2)CC1 (centres unmarked) [Example 47]", 375),
]

A = COC(C)c1cccc2c1cnn2C1CCN(C(=O)NC2CCC(F)(F)CC2)CC1 (centres unmarked) [Example 231]
B = CCc1ccc2c(c1)c(OC(C)C)nn2C1CCN(C(=O)NC2CCCCC2)CC1 [Example 153]
C = CCc1ccc2c(cnn2C2CCN(C(=O)NC3CCC(F)(F)CC3)CC2)c1OC [Example 256]
D = CO[C@H]1CC[C@H](NC(=O)N2CCC(n3ncc4c(F)c(C)ccc43)CC2)CC1 [Example 223]
Req: Hello, I need these entries ordered by α7PAM (%) @ 10 μmol/L, highest reading first. Thanks! Would you mind listing the labels in the order requested?
Resp: C, A, B, D
(C: 1668%, A: 647%, B: 386%, D: 257%)
